Tested on: Lipase MY
Assay: Two phase Lipase MY hydrolysis of HPPA-Me in organic solvent/water mixtures
Format: biochemical, Candida rugosa
Settings: solvent 25%, 43 hr
Would you kindly list % R for each of these compounds?
One number for each entry, in %.

Solved entries (count: 3):
| Compound | Unit annotation | % R |
| --- | --- | --- |
| CCO [ethyl alcohol] | % | 0 |
| BrCCBr [1,2-dibromoethane] | % | 73 |
| CC(C)O [2-propanol] | % | 0 |

Consider now this further compound.
Task item: So what's the measured % R for this one? ClCC(Cl)Cl [1,1,2 trichloroethane]
Reply: 79

---

Assay: Conversion of ketoprofen esters in organic solvent/oleic acid media
Type: biochemical
Conditions: KPG; as E212
Readout: % ee S-acid
Please append the unit to your numeric answer.

Would you please look over these solved cases?
| Compound | % ee S-acid |
| --- | --- |
| ClC(Cl)=C(Cl)Cl | 0% |
| c1ccc2c(c1)CCCC2 [1,2,3,4-Tetrahydronapthalene] | 68% |
| CC(Cl)(Cl)Cl | 0% |
| CC(C)CC(C)(C)C | 98% |
| C1=CCCCC1 | 94% |
| C1=CCCCCCC1 | 98% |

Task item: What value of measured % ee S-acid is listed for `C1CCCCC1` ?
Reply: 98%
